tested on: A549; assay: relative viability (normalised to negative control = 1, bortezomib = 0) (fraction); higher = less cytotoxic; settings: inflammatory serum-free RHB-A with cytokines + LPS; 5 d + 24 h CellTiter-Blue; compound 300 nM; GSK126 pretreatment: 5 uM GSK126
Listed below: relative viability values for each entry.
# output: bare number, no unit

Look over these answered cases.
{"compound": "CC(C)C[C@H](NC(=O)[C@H](Cc1ccccc1)NC(=O)c1cnccn1)B(O)O", "relative viability": 0.00234}
{"compound": "COc1cc2ncnc(Nc3ccc(F)c(Cl)c3)c2cc1OCCCN1CCOCC1", "relative viability": 0.488}
{"compound": "O=c1ncn2nc(Sc3ccc(F)cc3F)ccc2c1-c1c(Cl)cccc1Cl", "relative viability": 1.12}

For the compound CC(=O)c1c(C)c2cnc(Nc3ccc(N4CCNCC4)cn3)nc2n(C2CCCC2)c1=O , give its reported relative viability. 0.903

For the compound COc1ccc(-c2ccc3c(N4CCOCC4)nc(N4C[C@@H](C)O[C@@H](C)C4)nc3n2)cc1CO , give its measured relative viability value. 0.428
